B1: LINE1-full (parent)
chain: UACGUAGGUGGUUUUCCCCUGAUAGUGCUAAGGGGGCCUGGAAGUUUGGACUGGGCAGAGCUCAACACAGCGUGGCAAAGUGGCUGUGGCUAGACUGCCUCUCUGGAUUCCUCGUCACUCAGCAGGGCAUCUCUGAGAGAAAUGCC

Variants of: B1
Assay: self-cleavage, relative activity (ratio to wild type); higher = more cleavage; in vitro, sequencing; the parent is a self-cleaving ribozyme
Is self-cleavage at least 0.9? Then 1 (yes). If not, 0 (no).

Consider the worked cases shown below.
MUTATION_ID	GROUP
U45C U47A	1 (yes)
A43G U108C	1 (yes)
U91C G127A	0 (no)

In: Answer whether self-cleavage of A22G C131U is greater than or equal to 0.9.
Out: 1 (yes)

In: Answer whether self-cleavage of U52C A77U is greater than or equal to 0.9.
Out: 1 (yes)

In: Answer whether self-cleavage of G54U U104C is greater than or equal to 0.9.
Out: 1 (yes)

In: Answer whether self-cleavage of U46A A140U is greater than or equal to 0.9.
Out: 1 (yes)

In: Answer whether self-cleavage of G7U G54A is greater than or equal to 0.9.
Out: 1 (yes)

In: Answer whether self-cleavage of A77U A117U is greater than or equal to 0.9.
Out: 1 (yes)

In: Answer whether self-cleavage of U62C C101A is greater than or equal to 0.9.
Out: 0 (no)

In: Answer whether self-cleavage of G11C U20C is greater than or equal to 0.9.
Out: 1 (yes)
